Every entry's value here was drawn from paper PMC4180753.

Could you please report measured Ki for the items listed next?
Value expressed in µM; do not type the unit.

Q. Fetch value of Ki on KPC-2 (Klebsiella pneumoniae) for CC1(C)[C@H](C(=O)O)N2C(=O)C[C@H]2S1(=O)=O [Sulbactam] .
Sequence (Q9F663 25-293 limits assumed): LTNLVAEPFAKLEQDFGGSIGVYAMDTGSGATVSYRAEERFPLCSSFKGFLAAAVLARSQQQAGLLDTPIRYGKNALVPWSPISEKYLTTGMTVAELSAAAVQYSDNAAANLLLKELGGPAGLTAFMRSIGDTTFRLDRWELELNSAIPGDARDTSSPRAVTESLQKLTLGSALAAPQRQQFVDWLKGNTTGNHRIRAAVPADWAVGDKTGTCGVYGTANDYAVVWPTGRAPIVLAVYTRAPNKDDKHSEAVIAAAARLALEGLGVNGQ
A. 23.2

Q. Determine reported Ki for O=C(O)[C@H]1/C(=C/CO)O[C@@H]2CC(=O)N21 [Clavulanic acid] ; test system: KPC-2 (Klebsiella pneumoniae).
A. 30

Q. State Ki (KPC-2 (Klebsiella pneumoniae)) of C[C@]1(Cn2ccnn2)[C@H](C(=O)O)N2C(=O)C[C@H]2S1(=O)=O [Tazobactam] .
A. 21.6

Q. Please indicate recorded Ki of CC(=O)Nc1ccc(S(=O)(=O)Nc2ccccc2NS(=O)(=O)c2ccc(NC(C)=O)cc2)cc1 [ZINC01807204] measured with KPC-2 (Klebsiella pneumoniae).
A. 43.8
